meta.source: the EternaBench riboswitch data

system: MS2 coat protein; assay: apparent Kd, MS2 coat protein; higher = weaker binding; RNA-MaP array; FMN 200 µM where present; conditions: ligand present: flavin mononucleotide; designed as: OFF switch for flavin mononucleotide
readout: apparent Kd (nM)
Report the value in nM with no unit label.

// below: answered sequences
{"columns": ["sequenceCode", "testedTarget", "apparent Kd (nM)"],
 "data": [
  ["AAGACACAUGAGGAUCACCCAUGUUAGGAUAUACGCAUGCAUGCAUGCAUGCAUGCAAGUAGAAGGAACCAUGC", "MS2 coat protein", 30.6],
  ["AAAUUGUCAGGAUAUCCUGCUAUACGCAAUAUGUAUUCACGGGAGAAGGGACAUGAGGAUCACCCAUGUUUGAA", "MS2 coat protein", 30],
  ["GGAGAUACAUGAGGAUCACCCAUGUAGGAUAUCGAGUAUAUAUAUGGCGAAAGCCAUAUAUAUAUCGAGAAGGGCGUACACACC", "MS2 coat protein", 7.75],
  ["UUUUAACAUGAGGAUCACCCAUGUGAGGAUAUCGAAAUUUAUAUUAAUAUUAAUUUAACGAGAAGGCACAUUUU", "MS2 coat protein", 93.7]
]}

Entry CUUUUGUGAGGAUAUUCGUAGUAAAUAAAUAAAAUUAUUACGGAGAAGGCACAUGAGGAUCACCCAUGUUCCUU , apparent Kd reported as 50.3

Entry CAGGUAGACUGAGGAUAUACAAUAAAGACCUAGUCUAUCUAGGUCUCUACAUGAGGAUCACCCAUGUAGAAGGCAGUCUGCCUG , apparent Kd reported as 18.3

Entry CCGGAAGUACAGGAUAUCGUAUCGGAAACGAUACGAGAAGGGUAUACAUGAGGAUCACCCAUGUGUCCUACCGG , apparent Kd reported as 27.9

Entry GGAAAUUAGCAAGGAUAUCGGCUUACUAUAACUUUAUGCCCUGGGACAUGAGGAUCACCCAUGUACGAGAAGGUGCUAACUACA , apparent Kd reported as 36.9

Entry CGUAUCGAAGAAGGAUAUCGCAACGACAGCUAGGGCUAUUCUCAACAUGAGGAUCACCCAUGUUGCGAGAAGGUCUGCUAUGCG , apparent Kd reported as 50.5

Entry CAGUAAUUCGAAGGAUAUGGUUACAUGAGGAUCACCCAUGUAUUUUUUGUGAUCUUAAAAUUGAUCCAGAAGGUCGAAUUACUG , apparent Kd reported as 373

Entry AGGCGUAAGACAGGAUAUAGGCAGCGGGCUGGAAACGAAUACAAAGACAUGAGGAUCACCCAUGUCUAGAAGGGUCGUGGCGGG , apparent Kd reported as 9.88

Entry GGUGCGUAUGUGAGGAUAUGCUGGUCCUUGGAUCGGCAGAAGGCACAUGAGGAUCACCCAUGUGGUGUCGUACG , apparent Kd reported as 228

Entry GGUCCACAUGAGGAUCACCCAUGUCAGGAUAUACACGGCACUAUAAUAAGUGCCACCCGUAGAAGGGACGCUGG , apparent Kd reported as 38.5

Entry GCCUCGCUGUGAGGAUAUUACGCCUACCGGCAAAAUGCGGUUUCAGGUCCGUAAGAAGGCACAUGAGGAUCACCCAUGUAAGAA , apparent Kd reported as 213

Entry GUGUACAGAGGAUAUACAGGAGCUAGGAAACUAGCAACUUCACAUGAGGAUCACCCAUGUAGAAGGCUGUACAC , apparent Kd reported as 49.7

Entry UAUAUUUAUGUAGGAUAUGGUAUACAAAGUAUACCAGAAGGACAUGAGGAUCACCCAUGUAUGAAAUUCCAUAAUUGCCGUGUA , apparent Kd reported as 16.4

Entry GGUACUCAAAGAGUACCAAUACGAACAUGAGGAUCACCCAUGUAGGAUAUGAAAACGCCGGAGUAUCAGAAGGACAUGUGCCUA , apparent Kd reported as 21.3

Entry UAUUAUAUAGAGAAGGACAUGAGGAUCACCCAUGUCGCCGGGCCCGGGAAACCGGGCCCGGCCAUGUAGGAUAUCUAUAUGGUA , apparent Kd reported as 5.86
